test: G protein-coupled receptor (GPCR) small molecule agonists, calcium flux assay: HEK293 wild type cell line counter screen (AID 1920065); settings: HEK293 WT calcium flux, fluorescence, agonist mode; series mostly up to 57.6 µM; note: % is set by controls: 0 for no effect and ±100 for the full control effect
The source made the active and inactive calls. Calls come from the whole dose curve.
property_measured: activation

Answered cases to consult:
- molecule: "CC(c1cc(C(C)(C)C)cc(C(C)(C)C)c1O)c1cc(C(C)(C)C)cc(C(C)(C)C)c1O"
  activation: "inactive"
- molecule: "CCCCCCCCCOC(C)=O"
  activation: "inactive"
- molecule: "CCC(C(=O)O)c1ccc(N2Cc3ccccc3C2=O)cc1 (configuration not stated)"
  activation: "inactive"
- molecule: "Cc1oc(-c2ccccc2)nc1CCC(=O)c1ccc(CC2SC(=O)NC2=O)cc1 (configuration not stated)"
  activation: "inactive"
- molecule: "CCN(CCC#N)c1ccc(N=Nc2ccc([N+](=O)[O-])cc2)cc1"
  activation: "inactive"
- molecule: "Cc1ccc2c(c1[N+](=O)[O-])C(=O)c1ccccc1C2=O"
  activation: "inactive"
- molecule: "CCCCCCCCCCCCCCCC[N+](C)(C)CCN(Cc1ccc(OC)cc1)c1ncccn1"
  activation: "inactive"
- molecule: "COc1cc2[nH]c(=O)[nH]c(=O)c2cc1OC"
  activation: "inactive"

Using the record for `C=CCSSCCC` , report its activation.
inactive

Suppose we examine the molecule `Clc1cc(Cl)cc(Cl)c1` ; what activation value has been reported?
inactive

Could you share which activation value was measured for `CC(C)(C)N` ?
inactive

I am curious: what activation value has been reported for CCOC(=O)OC(C)OC1=C(C(=O)Nc2ccccn2)N(C)S(=O)(=O)c2ccccc21 (configuration not stated) ?
inactive

###

target: KiSS-1 receptor (Homo sapiens); experiment: Human kisspeptin (KISS1R) small molecule agonists, calcium flux assay in KISS1R-HEK293 cells (AID 1920064); conditions: KISS1R-HEK293, calcium flux fluorescence, agonist; series mostly up to 76.8 µM; note: % is set by controls: 0 for no effect and ±100 for the full control effect
Calls of active or inactive are those of the source. Calls come from the whole dose curve; as a rule, active = well fitted activation curve with a large enough effect in the repeat runs; inconclusive = weak or mixed curves; inactive = flat fitted curve, though single readings scatter.
property_measured: activation

- compound: "Cc1c(Cn2ccnc2)c2ccccc2n1CCC(=O)O"
  experimental_value: "inactive"
- compound: "CC1(C)CCC(C)(C)c2cc(NC(=O)c3ccc(C(=O)O)cc3)ccc21"
  experimental_value: "inactive"
- compound: "[O]=[Mo](=[O])=[O]"
  experimental_value: "-1.57% [at 15.8 µM] (inactive)"
- compound: "CCOC(=O)Nc1ccc(NCc2ccc(F)cc2)nc1N"
  experimental_value: "inactive"
- compound: "C[C@H](N)C(=O)N[C@@H](C)C(=O)NC1[C@H]2CN(c3nc4c(cc3F)c(=O)c(C(=O)O)cn4-c3ccc(F)cc3F)C[C@@H]12 (stereo partly specified)"
  experimental_value: "inactive"
- compound: "O=C(O)c1cc(O)c2c(c1)C(=O)c1cccc(O)c1C2=O"
  experimental_value: "inactive"
- compound: "O=c1[nH]cccc1O"
  experimental_value: "inactive"
- compound: "C=C(C)C1CCC(C)CC1O (stereo unspecified)"
  experimental_value: "inactive"

What activation value was documented for this compound, `CCCCC1=NC2(CCCC2)C(=O)N1Cc1ccc(-c2ccccc2-c2nn[nH]n2)cc1` ?
inactive

Any idea what its activation is? The compound is `CCOC(=O)CC(=O)c1cc(F)c(Cl)nc1Cl`
inactive

Please report the recorded activation for `CCN(CC)C(=O)N1CCN(C)CC1` .
inactive

Recorded activation of `CC(C)CCOC(=O)CC(C)C` , please.
inactive

Data request, read-out activation, for `O=NN(CCCl)C(=O)NC1CCCCC1`
inactive

Consider the compound shown here: `O=C(O)CCNC(=O)c1ccc(N=Nc2ccc(O)c(C(=O)O)c2)cc1` What is its recorded activation?
inactive
